Tested on: Coprococcus comes
assay notes: growth AUC relative to DMSO control (median of replicates) (fraction); higher = more growth (less inhibition), active = hit call of the paper
assay context: 20 µM; 24 h
# cutoff 1 applies to growth AUC; >= gives condition met, < gives condition not met

CCCOP(=S)(OCCC)SCC(=O)N1CCCCC1C (configuration not stated): condition not met
CCOC(=O)c1cn2nc(OP(=S)(OCC)OCC)cc2nc1C: condition not met
COc1ncc(F)c2nc(S(=O)(=O)Nc3c(F)cccc3F)nn12: condition met
C1CCC(NC2CCCCC2)CC1.O=NO: condition not met
CNC(=O)/C=C(\C)OP(=O)(OC)OC: condition met
CC(C)(C)c1cc([N+](=O)[O-])cc([N+](=O)[O-])c1O: condition not met

Prompt: Could you please find out whether "Oc1ccc(C(c2ccc(O)cc2)(C(F)(F)F)C(F)(F)F)cc1" has growth AUC that meets 1 or exceeds it?
Completion: condition met

====

The entries below are paired with their reported growth AUC.
Tested on: Roseburia intestinalis
assay notes: growth AUC relative to DMSO control (median of replicates) (fraction); higher = more growth (less inhibition), active = hit call of the paper
assay context: 20 µM; 24 h
Give your answer as a number; write no unit.

Example entries and their recorded answers appear below.
COP(=S)(OC)Oc1ccc(SC)c(C)c1: 1.03
ClC1=C(Cl)C2(Cl)C3COCC3C1(Cl)C2(Cl)Cl (configuration not stated): 1.08
COc1cc(OC)nc(Oc2cccc(Oc3nc(OC)cc(OC)n3)c2C(=O)[O-])n1.[Na+]: 1.06
COCC(=O)N(c1c(C)cccc1C)[C@@H](C)C(=O)OC: 0.997
N#Cc1c(Cl)c(Cl)c(Cl)c(C#N)c1Cl: 0.939

Prompt: # get_value(readout='growth AUC', item= "O=[N+]([O-])/N=C1\NCCN1Cc1ccc(Cl)nc1" )
Completion: 0.955

Prompt: May I ask what growth AUC has been recorded for "N#Cc1c(O)c(Cl)c(Cl)c(C#N)c1Cl" ?
Completion: 1.06

Prompt: Bench note: what growth AUC did COP(=S)(OC)SC(CC(=O)O)C(=O)O (configuration not stated) show?
Completion: 1.02

Prompt: Dear colleague, I am looking for the recorded growth AUC of the following compound: "C=CCOC(=O)C(C)(C)OC(=O)c1cc(-n2c(=O)cc(C(F)(F)F)n(C)c2=O)ccc1Cl"
Completion: 0.994

Prompt: Please report the recorded growth AUC for "CCOP(=S)(OCC)SCn1nnc2ccccc2c1=O" .
Completion: 1.11

Prompt: If you can, please state the reported growth AUC value of "CN(C)C(CSC(N)=O)CSC(N)=O.Cl" .
Completion: 1.07

Prompt: Which growth AUC value belongs to "CC(C)Nc1nc(Cl)nc(NC(C)C)n1" ?
Completion: 0.962

====

Tested on: Bacteroides dorei
assay notes: growth AUC relative to DMSO control (median of replicates) (fraction); higher = more growth (less inhibition), active = hit call of the paper
assay context: 20 µM; 24 h
quantity kind: growth AUC
When you answer, write just the number.

Prompt: // growth AUC lookup, key: "Cc1nnc(-c2ccccc2)c(=O)n1N"
Completion: 1

Prompt: Any idea what growth AUC was measured for "O=C(NC(=O)c1c(F)cccc1F)Nc1ccc(Cl)cc1" ?
Completion: 0.998

Prompt: Quick check: growth AUC of "CCOP(=S)(OCC)Oc1cc(Cl)c(SC)cc1Cl" ?
Completion: 0.999

Prompt: Item under review: "O=[N+]([O-])c1ccc2ccc3cccc4ccc1c2c34" . Reported growth AUC?
Completion: 0.851

Prompt: Report growth AUC for "O=C1C(Cl)=C(Cl)C(=O)c2ccccc21" please.
Completion: 0.958

Prompt: Look up growth AUC: CC(C)(C)C(O)(CCc1ccc(Cl)cc1)Cn1cncn1 (stereo unspecified)
Completion: 1.03

====

Test system: Bacteroides dorei
assay notes: growth AUC relative to DMSO control (median of replicates) (fraction); higher = more growth (less inhibition), active = hit call of the paper
assay context: 20 µM; 24 h
Measured growth AUC of individual entries
Please give only the number in your answer, with no unit.

Please review the following examples before continuing.
COP(=O)(OC)O/C(=C/Br)c1ccc(Cl)cc1Cl: 0.979
COCc1cnc(C2=NC(C)(C(C)C)C(=O)N2)c(C(=O)O)c1 (centres undefined): 0.918

Prompt: What does the data say about its growth AUC? Entry: CP(=O)(O)CCC(N)C(=O)[O-].[NH4+] (centres undefined)
Completion: 0.977

Prompt: Request the reported growth AUC associated with "CCCCN(CC)C(=O)SCCC"
Completion: 0.972

Prompt: Query (compound): "O=[N+]([O-])/N=C1\NCCN1Cc1ccc(Cl)nc1" ; field requested: growth AUC
Completion: 1.03

Prompt: Name the reported growth AUC value associated with the compound "O=[N+]([O-])c1c(Cl)c(Cl)c(Cl)c(Cl)c1Cl"
Completion: 0.972

Prompt: Form field: reported growth AUC of "CSC1=N[C@@](C)(c2ccccc2)C(=O)N1Nc1ccccc1"
Completion: 0.985

Prompt: Any idea what its growth AUC is? The compound is CCS(=O)Cc1ccccc1OC(=O)NC (centres undefined)
Completion: 0.943

Prompt: Entry under review: "CCOP(=O)(OCC)Oc1ccc([N+](=O)[O-])cc1" . Reported growth AUC?
Completion: 1.01

====

System: Bacteroides caccae
assay notes: growth AUC relative to DMSO control (median of replicates) (fraction); higher = more growth (less inhibition), active = hit call of the paper;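 active = AUC reduced over 20% with Padj below 0.05 in at least 2 of 3 replicates; inactive = otherwise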
assay context: 20 µM; 24 h
Respond using exactly one of the listed classes: t = active, f = inactive

Some solved cases for reference:
Oc1ccc(Cl)cc1Cl: f
CNC(=O)Oc1cccc2c1OC(C)(C)O2: f
CC(Oc1ccc(Oc2ncc(C(F)(F)F)cc2Cl)cc1)C(=O)O (stereo unspecified): f
Cc1occc1C(=O)Nc1ccccc1: f
Cc1nnc(-c2ccccc2)c(=O)n1N: f

Prompt: Give the logged outcome of this assay for the following compound: "CCOP(=S)(OCC)SCCSCC"
Completion: f

Prompt: Assay result, entry CCOC(=O)C(SP(=S)(OC)OC)c1ccccc1 (stereo unspecified) — outcome?
Completion: f

====

Readings of growth AUC for the listed compounds
System: Akkermansia muciniphila
assay notes: growth AUC relative to DMSO control (median of replicates) (fraction); higher = more growth (less inhibition), active = hit call of the paper
assay context: 20 µM; 24 h

CCOC(=O)CCN(Cc1ccccc1)SN(C)C(=O)O/N=C(/C)SC: 0.948 (inactive)
CS(=O)(=O)c1ccc(C(=O)C2C(=O)CCCC2=O)c([N+](=O)[O-])c1: 0.895 (inactive)
Cc1ccc(N(SC(F)(Cl)Cl)S(=O)(=O)N(C)C)cc1: 0.918 (inactive)
O=C(NC(=O)c1c(F)cccc1F)Nc1cc(Cl)c(OC(F)(F)C(F)F)c(Cl)c1: 1.17 (inactive)

Prompt: GET /values?readout=growth AUC&system=Akkermansia muciniphila&item= "CON(C)C(=O)Nc1ccc(Br)cc1"
Completion: 0.941 (inactive)

Prompt: What reported growth AUC corresponds to CC(C)(C)C(O)C(Oc1ccc(-c2ccccc2)cc1)n1cncn1 (mixture of isomers) on Akkermansia muciniphila?
Completion: 1.01 (inactive)

Prompt: Field: growth AUC (Akkermansia muciniphila). Entry: "Cc1cnc2c(C(=O)O)c(Cl)ccc2c1"
Completion: 0.939 (inactive)

Prompt: growth AUC of "Cc1ccc(N=CN(C)C=Nc2ccc(C)cc2C)c(C)c1" on Akkermansia muciniphila?
Completion: 1.13 (inactive)

Prompt: What is its growth AUC for Akkermansia muciniphila? Entry: "CN(C)C(=S)SSC(=S)N(C)C"
Completion: 0.83 (inactive)

Prompt: Identify the measured growth AUC of "CCN(C(=O)n1nnn(-c2ccccc2Cl)c1=O)C1CCCCC1" for Akkermansia muciniphila.
Completion: 0.87 (inactive)

Prompt: Item: CC1(C)OC(c2ccco2)CN1C(=O)C(Cl)Cl (stereo not given) Test system: Akkermansia muciniphila Read-out: growth AUC Value: ?
Completion: 0.918 (inactive)

Prompt: Item OC(c1ccc(F)cc1)(c1cncnc1)c1ccccc1Cl (stereo not given) with Akkermansia muciniphila - growth AUC?
Completion: 0.95 (inactive)

Prompt: Recorded growth AUC for CC(C)(C)C(O)(CCc1ccc(Cl)cc1)Cn1cncn1 (stereo not given) with Akkermansia muciniphila, please?
Completion: 0.856 (inactive)

Prompt: Param readout = growth AUC; param system = Akkermansia muciniphila; param query = "COc1cc(OC)nc(Sc2cccc(Cl)c2C(=O)O)n1" ; response: value
Completion: 1.28 (inactive)

====

Measured growth AUC of individual entries
Tested on: Akkermansia muciniphila
assay notes: growth AUC relative to DMSO control (median of replicates) (fraction); higher = more growth (less inhibition), active = hit call of the paper
assay context: 20 µM; 24 h
# print the numeric value only

Below are worked cases with known answers.
CCOC(=O)C(C)OC(=O)c1cc(Oc2ccc(C(F)(F)F)cc2Cl)ccc1[N+](=O)[O-] (stereo not given): 0.88
Clc1c(Cl)c(Cl)c(Cl)c(Cl)c1Cl: 0.994
COc1ccc(/C(=C/C(=O)N2CCOCC2)c2ccc(F)cc2)cc1OC: 0.998
c1ccc(-c2ccccc2)cc1: 1.09

Okay, now this compound:
Prompt: What growth AUC value was documented for this compound, "COC(=O)c1ccccc1CS(=O)(=O)NC(=O)Nc1nc(OC)cc(OC)n1" ?
Completion: 0.94
